Source of measurements: patent US7674801B2

Target: S. aureus (SAU) GyrB ATPase (Staphylococcus aureus)
Sequence (P0A0K8 whole entry): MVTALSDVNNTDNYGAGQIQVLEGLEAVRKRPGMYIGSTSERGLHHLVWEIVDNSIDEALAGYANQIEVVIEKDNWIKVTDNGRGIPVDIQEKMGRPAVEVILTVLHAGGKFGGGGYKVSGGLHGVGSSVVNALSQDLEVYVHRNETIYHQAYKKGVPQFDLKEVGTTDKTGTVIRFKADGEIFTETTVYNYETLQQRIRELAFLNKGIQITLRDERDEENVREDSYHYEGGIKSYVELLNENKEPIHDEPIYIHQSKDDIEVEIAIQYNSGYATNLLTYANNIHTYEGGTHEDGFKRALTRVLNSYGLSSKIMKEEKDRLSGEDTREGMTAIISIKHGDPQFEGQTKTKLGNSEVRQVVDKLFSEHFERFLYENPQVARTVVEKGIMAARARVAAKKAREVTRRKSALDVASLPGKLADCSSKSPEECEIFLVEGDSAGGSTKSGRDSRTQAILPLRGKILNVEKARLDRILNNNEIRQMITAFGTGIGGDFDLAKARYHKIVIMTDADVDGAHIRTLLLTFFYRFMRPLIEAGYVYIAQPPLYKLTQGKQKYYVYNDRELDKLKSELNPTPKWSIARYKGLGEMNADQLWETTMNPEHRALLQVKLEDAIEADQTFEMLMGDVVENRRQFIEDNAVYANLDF
Sequence (P0AES4 whole entry, further chain): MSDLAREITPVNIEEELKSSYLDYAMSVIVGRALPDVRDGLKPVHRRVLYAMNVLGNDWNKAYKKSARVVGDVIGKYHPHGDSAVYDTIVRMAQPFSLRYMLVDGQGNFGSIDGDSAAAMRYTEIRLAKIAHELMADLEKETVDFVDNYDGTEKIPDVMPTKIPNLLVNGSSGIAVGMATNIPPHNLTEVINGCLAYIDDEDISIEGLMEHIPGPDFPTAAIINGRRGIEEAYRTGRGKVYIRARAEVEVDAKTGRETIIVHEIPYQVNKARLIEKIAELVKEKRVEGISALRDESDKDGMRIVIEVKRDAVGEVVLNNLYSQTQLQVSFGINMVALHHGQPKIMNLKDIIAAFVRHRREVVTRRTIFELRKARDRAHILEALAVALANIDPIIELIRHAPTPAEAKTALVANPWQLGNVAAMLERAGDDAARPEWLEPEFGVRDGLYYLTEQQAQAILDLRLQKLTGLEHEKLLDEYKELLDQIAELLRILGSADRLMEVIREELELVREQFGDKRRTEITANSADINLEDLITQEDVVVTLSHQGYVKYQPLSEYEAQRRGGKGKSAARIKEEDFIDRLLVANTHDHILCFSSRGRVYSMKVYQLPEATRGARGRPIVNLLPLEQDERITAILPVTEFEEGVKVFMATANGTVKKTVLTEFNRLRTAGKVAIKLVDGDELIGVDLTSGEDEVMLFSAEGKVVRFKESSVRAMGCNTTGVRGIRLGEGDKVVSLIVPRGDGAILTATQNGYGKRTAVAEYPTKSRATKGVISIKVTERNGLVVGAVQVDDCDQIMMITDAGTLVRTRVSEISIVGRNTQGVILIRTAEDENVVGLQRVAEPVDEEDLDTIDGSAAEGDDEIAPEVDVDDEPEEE
Assay: S. aureus GyrB ATPase inhibition, ammonium molybdate/malachite green phosphate detection assay
Format: biochemical
Conditions: read-out: S. aureus (SAU) GyrB ATPase % Inhibition, compound concentration 12.5 μM
Form field: inhibition at 12.5 µM (one value per entry).
Hi! Could you send only the number? It should be in %, unit omitted.

CCNC(=O)Nc1cccc(-c2cccc(C(N)=O)c2)n1 = 97.7
CCNC(=O)Nc1ccc(-c2ccc3nc(C(=O)O)cn3c2)cn1 = 96.8
CCNC(=O)Nc1cc(-c2cccnc2)c(-c2cncc(C(=O)O)c2)cn1 = 96
CCNC(=O)Nc1cc(-c2cccnc2)c(-c2cncc(C(=O)OCC)c2)cn1 = 94.9
CCNC(=O)Nc1cc(-c2nc(C(C)(C)C)cs2)c(-c2cncc(C(=O)NC)c2)cn1 = 88.1
CCCCNC(=O)c1nc(-c2cnc(NC(=O)NCC)cc2-c2nc(CC)cs2)sc1C(=O)N(C)C = 101

## Input Which measured inhibition at 12.5 µM value corresponds to CCNC(=O)Nc1ncc(-c2cccc(C(=O)O)c2)cn1 ?
## Output 13.6

## Input Which measured inhibition at 12.5 µM value corresponds to CCNC(=O)Nc1nc(-c2cccc(C(=O)OC)c2)cs1 ?
## Output 7.09

## Input Which measured inhibition at 12.5 µM value corresponds to CCNC(=O)Nc1ccc(-c2nc3cccc(C(N)=O)c3s2)cn1 ?
## Output 83.7
